- EXPERIMENTAL SYSTEM: DNA polymerase beta (Homo sapiens)
- ASSAY DETAILS: qHTS Assay for Inhibitors of DNA Polymerase Beta; also: potency is read from the fitted curve at half-maximal effect
- CONDITION DESCRIPTION: Pol beta primer extension/strand displacement, fluorescence kinetic; series mostly up to 114 µM
Out of some 340,000 compounds screened, about 4,500 (1.3%) were called active. Inconclusive results (about 5%) are left out. The full list was thinned out, with actives kept by preference.
REPORTED ENDPOINT: Potency

Some solved entries appear below for comparison.
- Cc1ccc(C2CCN(C(=O)c3cnn(-c4ccccc4Cl)c3C3CCN(C(=O)OC(C)(C)C)CC3)C2)cc1 (configuration not stated): inactive
- Cc1ccc(-n2ncc3c(=O)n(-c4ccc(C)c(C)c4)c(-c4ccco4)nc32)cc1: inactive
- CCOC(=O)C1CCN(C(=O)CSc2c3c(nc4ccc(Cl)cc24)CCCC3)CC1: inactive
- CCOc1ccc(Nc2c(S(=O)(=O)c3ccccc3)cnc3ccccc23)cc1: inactive
- Cc1ccc2nc(-c3ccncc3)cc(C(=O)Nc3ccc4c(c3)OCCO4)c2c1: inactive

Task: # input compound: `COc1ccc2c(c1)Cc1sc(NC(=O)c3ccccc3Br)nc1-2` ; wanted: its Potency
Result: inactive

Task: # input compound: `CCOc1ccc(Nc2nc(Cc3nnc(SCC(=O)NC4CCCC4)n3C)cs2)cc1` ; wanted: its Potency
Result: inactive

Task: # input compound: `CCn1cc(C(=O)NCc2ccccc2)c(=O)c2cc(S(=O)(=O)N3CCCCC3)ccc21` ; wanted: its Potency
Result: inactive

Task: # input compound: `CSc1ccc(CCNC(=O)c2cnn(-c3ccccc3)c2-n2cccc2)cc1` ; wanted: its Potency
Result: inactive

Task: # input compound: `Cc1c(Cl)cnc(NC(=O)COC(=O)c2ccc(S(=O)(=O)NCc3ccco3)cc2)c1Cl` ; wanted: its Potency
Result: 31.6 µM (active)
